Experimental system: AnCE (Drosophila melanogaster, UniProt Q10714)
Sequence (Q10714 18-615): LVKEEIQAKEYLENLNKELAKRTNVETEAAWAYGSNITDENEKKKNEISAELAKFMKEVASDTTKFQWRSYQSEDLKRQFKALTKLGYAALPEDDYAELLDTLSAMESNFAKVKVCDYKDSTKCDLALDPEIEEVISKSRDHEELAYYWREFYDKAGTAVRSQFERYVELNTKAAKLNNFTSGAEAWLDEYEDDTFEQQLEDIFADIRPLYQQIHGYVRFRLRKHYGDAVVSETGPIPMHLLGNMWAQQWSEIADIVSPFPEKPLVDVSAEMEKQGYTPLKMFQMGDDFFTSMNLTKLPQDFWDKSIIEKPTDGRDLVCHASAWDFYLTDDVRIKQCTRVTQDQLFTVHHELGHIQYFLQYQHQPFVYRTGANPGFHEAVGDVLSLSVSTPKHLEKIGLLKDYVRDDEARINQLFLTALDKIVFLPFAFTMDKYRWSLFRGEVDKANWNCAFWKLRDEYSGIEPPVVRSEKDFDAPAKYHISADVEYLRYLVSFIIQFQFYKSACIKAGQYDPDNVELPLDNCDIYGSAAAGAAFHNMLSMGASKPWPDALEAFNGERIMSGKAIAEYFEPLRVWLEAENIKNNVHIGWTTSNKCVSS
Residues, ends and D or L forms follow the SMILES beside them.
Measurement kind: pIC50
Answers are plain numbers, as −log10 of the molar value.

| Compound | Experimental system | Recorded result |
| --- | --- | --- |
| CC(C)[C@H](N)C(=O)N[C@@H](Cc1c[nH]c2ccccc12)C(=O)O [VW] (H-Val-Trp-OH) | AnCE (Drosophila melanogaster, UniProt Q10714) | 3.11 |
| N=C(N)NCCC[C@H](NC(=O)[C@@H](N)Cc1c[nH]c2ccccc12)C(=O)O [WR] (H-Trp-Arg-OH) | AnCE (Drosophila melanogaster, UniProt Q10714) | 2.42 |
| N[C@@H](Cc1ccc(O)cc1)C(=O)N[C@@H](Cc1c[nH]c2ccccc12)C(=O)O [YW] (H-Tyr-Trp-OH) | AnCE (Drosophila melanogaster, UniProt Q10714) | 2.47 |

We next turn to a different compound, shown below.
Task: Using AnCE (Drosophila melanogaster, UniProt Q10714) as the test system, report measured pIC50 of NC(N)=NCCC[C@H](N)C(=O)N[C@@H](Cc1c[nH]c2ccccc12)C(=O)O [RW] (H-Arg-Trp-OH) .
Output: 3.06
